protocol-details: PK parameters, IP dosing (plasma and brain exposure)
Format: in vivo
Set-up: concentration or dose not given beside the values
measurement-parameters: Mouse IP, brain; read-out: AUC(last) Brain
Reported AUC(0-t) values for the following molecules.
parameter: AUC(0-t)

- CC(=O)N1CCN(c2ccc(C(=O)Nc3cc(-c4cccs4)ccc3N)nc2)CC1: 200 to 300 ng·h/mL
- Nc1ccc(-c2ccccc2)cc1NC(=O)c1ncc(NCCOCc2cccnc2)cn1: < 100 ng·h/mL
- CN1CCN(c2cnc(C(=O)Nc3cc(-c4cccs4)ccc3N)nc2)CC1: 700 to 800 ng·h/mL
- Nc1ccc(-c2cccs2)cc1NC(=O)c1ccc(OCCO)cn1: 2000 to 2100 ng·h/mL
